# EXPERIMENTAL SYSTEM: Cytochrome P450 2C9 (Homo sapiens)
# Sequence (P11712 whole entry): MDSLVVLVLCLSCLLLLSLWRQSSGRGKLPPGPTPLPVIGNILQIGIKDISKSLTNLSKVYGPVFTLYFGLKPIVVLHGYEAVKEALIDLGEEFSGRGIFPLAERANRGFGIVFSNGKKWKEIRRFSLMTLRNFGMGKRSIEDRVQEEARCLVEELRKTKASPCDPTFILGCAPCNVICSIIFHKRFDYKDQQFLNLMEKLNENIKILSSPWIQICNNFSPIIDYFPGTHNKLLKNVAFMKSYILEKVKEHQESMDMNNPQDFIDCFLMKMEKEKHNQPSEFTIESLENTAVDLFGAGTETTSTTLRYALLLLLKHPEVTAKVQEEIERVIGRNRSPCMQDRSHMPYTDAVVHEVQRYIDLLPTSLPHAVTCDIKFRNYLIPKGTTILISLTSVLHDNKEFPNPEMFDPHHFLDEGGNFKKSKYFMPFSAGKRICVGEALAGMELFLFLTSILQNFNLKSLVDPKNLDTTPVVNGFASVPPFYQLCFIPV
RECORDED METRIC: pIC50
By convention, pIC50 is the negative base-10 log of a molar concentration.

Ask | Write down the reported pIC50 of O=C(O)CCc1ccc(Cn2cccn2)cc1OCCc1ccc2ccccc2c1 , test system: Cytochrome P450 2C9 (Homo sapiens).
Reply | 4.52

---

# ASSAY REMARKS: Cmax in rat at 10 mg/kg, po
# Assay type: ADME, organism-based
# Parameters: dose 10 mg/kg, route oral
# CONDITIONS USED: in vivo
Recorded Cmax values for a group of molecules are listed next.
Return type: number; implicit unit ng/mL.

O=C([O-])/C=C/c1ccc(Cn2cccn2)cc1OCCc1ccc2ccccc2c1.[Na+] = 943

Ask | Need Cmax, item O=C([O-])CCc1ccc(Cn2cccn2)cc1OCCc1ccc2ccccc2c1.[Na+]
Reply | 8320

Entry source: ChEMBL document CHEMBL1152570
